// data source = ChEMBL document CHEMBL1147484

pIC50: −log10 of the molar value.
As an illustration, consider measured pIC50 for molecules on Cytochrome P450 3A4 (Homo sapiens, UniProt P08684).
Sequence (P08684 whole entry): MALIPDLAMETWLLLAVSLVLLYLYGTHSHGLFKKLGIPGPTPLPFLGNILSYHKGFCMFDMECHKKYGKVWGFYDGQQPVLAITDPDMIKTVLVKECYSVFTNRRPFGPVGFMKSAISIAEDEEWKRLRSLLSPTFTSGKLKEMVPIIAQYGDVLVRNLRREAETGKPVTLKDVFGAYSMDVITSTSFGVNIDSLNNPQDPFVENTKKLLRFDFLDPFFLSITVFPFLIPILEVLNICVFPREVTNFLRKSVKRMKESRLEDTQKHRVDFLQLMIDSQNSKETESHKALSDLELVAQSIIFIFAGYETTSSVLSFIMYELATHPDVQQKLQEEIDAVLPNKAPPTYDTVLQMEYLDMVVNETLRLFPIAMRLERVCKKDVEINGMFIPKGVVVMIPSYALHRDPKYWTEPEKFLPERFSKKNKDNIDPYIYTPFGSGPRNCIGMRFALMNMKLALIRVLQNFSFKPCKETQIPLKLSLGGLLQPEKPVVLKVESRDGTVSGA

COc1cc2nc(C)[nH]c2cc1C(=O)c1ccc(Nc2ccc(F)cc2F)cc1 = < 5.70

Switching to the query record.
Reported pIC50 for COc1ccc(C#CC(C)(C)N)cc1C(=O)c1ccc(Nc2ccc(F)cc2F)cc1 was < 5.70

----------
Assayed target: Mitogen-activated protein kinase 14 (Mus musculus, UniProt P47811)
Sequence (P47811 whole entry): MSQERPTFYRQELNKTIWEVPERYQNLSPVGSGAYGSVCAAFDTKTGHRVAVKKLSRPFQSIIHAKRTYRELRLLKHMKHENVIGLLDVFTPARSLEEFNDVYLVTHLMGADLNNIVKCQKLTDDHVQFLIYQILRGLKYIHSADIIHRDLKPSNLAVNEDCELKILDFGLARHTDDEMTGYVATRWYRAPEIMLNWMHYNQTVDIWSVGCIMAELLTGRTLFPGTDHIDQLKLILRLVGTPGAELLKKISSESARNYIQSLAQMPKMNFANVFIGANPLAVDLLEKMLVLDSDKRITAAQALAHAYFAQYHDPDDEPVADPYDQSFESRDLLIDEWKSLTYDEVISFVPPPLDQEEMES
Assay overview: Inhibition of murine His-Mitogen-activated protein kinase p38 alpha phosphorylation.
Please provide measured log10 IC50 for the entries that follow.
// units: µM (pre-log); metric: IC50; scale: log10

// known answers, use as guide
COc1ccc(CCC(C)(C)O)cc1C(=O)c1ccc(Nc2ccc(F)cc2F)nc1 = 2.68
COc1ccc(/C=C/C2(O)CCN(C)CC2)cc1C(=O)c1ccc(Nc2ccc(F)cc2F)cc1 = 0.00

Report log10 IC50 for each item below.
1. COc1ccc(C#CC(C)(C)O)cc1C(=O)c1ccc(Nc2ccc(F)cc2F)nc1
2. COc1ccc(C#CC(C)(C)N)cc1C(=O)c1ccc(Nc2ccc(F)cc2F)nc1
3. O=C(c1ccc(Nc2ccc(F)cc2F)nc1)c1ccccc1Cl

*A*
[1.73, 0.90, 2.00]

----------
As an illustration, consider measured IC50 for molecules on Cytochrome P450 2C9 (Homo sapiens).
Sequence (P11712 whole entry): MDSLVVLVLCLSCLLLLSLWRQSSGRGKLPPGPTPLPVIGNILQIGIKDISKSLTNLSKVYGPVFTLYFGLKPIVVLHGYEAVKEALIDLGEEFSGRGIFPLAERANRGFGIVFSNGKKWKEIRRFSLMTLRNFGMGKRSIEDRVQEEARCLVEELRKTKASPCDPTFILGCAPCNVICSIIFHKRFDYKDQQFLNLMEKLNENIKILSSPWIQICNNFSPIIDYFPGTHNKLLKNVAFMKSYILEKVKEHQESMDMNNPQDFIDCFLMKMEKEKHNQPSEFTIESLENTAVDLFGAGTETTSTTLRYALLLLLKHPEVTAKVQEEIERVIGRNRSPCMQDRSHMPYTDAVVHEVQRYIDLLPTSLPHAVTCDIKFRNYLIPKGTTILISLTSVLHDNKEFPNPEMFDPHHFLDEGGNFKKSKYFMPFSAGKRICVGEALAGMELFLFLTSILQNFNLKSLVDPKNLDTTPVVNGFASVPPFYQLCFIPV

COc1cc2nc(C)[nH]c2cc1C(=O)c1ccc(Nc2ccc(F)cc2F)cc1 = > 2000 nM

Reported IC50 for COc1ccc(C#CC(C)(C)N)cc1C(=O)c1ccc(Nc2ccc(F)cc2F)cc1 was > 2000 nM

----------
Assayed target: Mitogen-activated protein kinase 14 (Mus musculus, UniProt P47811)
Assay overview: Inhibition of murine His-Mitogen-activated protein kinase p38 alpha phosphorylation.
pIC50: −log10 of the molar value.
Param threshold (5) applies to pIC50; output 1 when value >= threshold, -1 when value < threshold.

The following molecules have reported results that may help.
COc1ccccc1C(=O)c1ccc(Nc2ccc(F)cc2F)cc1 = -1
COc1cc2[nH]c(C)nc2cc1C(=O)c1ccc(Nc2ccc(F)cc2F)nc1 = -1
CC(C)(N)C#Cc1ccc(Cl)c(C(=O)c2ccc(Nc3ccc(F)cc3F)nc2)c1 = -1

*Q* Check the entry CC(C)(N)C#Cc1ccc(Cl)c(C(=O)c2ccc(Nc3ccc(F)cc3F)cc2)c1 : does pIC50 equal or exceed 5?
*A* 1

----------
Assay overview: Oral bioavailability
Format: ADME, organism-based
Condition summary: rat, in vivo
Metric: bioavailability (%)
One number for each entry, in %.

COc1ccc(C#CC(C)(C)N)cc1C(=O)c1ccc(Nc2ccc(F)cc2F)cc1 = 46

Reported bioavailability for COc1cc2[nH]c(C)nc2cc1C(=O)c1ccc(Nc2ccc(F)cc2F)nc1 was 54

----------
Assay overview: Peak plasma concentration at 1 mg/kg peroral administration
Format: ADME, organism-based
Set-up: dose 1 mg/kg, route oral
Condition summary: rat, po
Metric: Cmax (µM)
Answers are plain numbers, in µM.

COc1ccc(C#CC(C)(C)N)cc1C(=O)c1ccc(Nc2ccc(F)cc2F)cc1 = 0.059

Reported Cmax for COc1cc2[nH]c(C)nc2cc1C(=O)c1ccc(Nc2ccc(F)cc2F)nc1 was 0.607

----------
Assay overview: Volume of distribution in steady state was determined in rat
Type: ADME, organism-based
Condition summary: in vivo, read-out: Vss
Metric: Vd (L/kg)
Answers are plain numbers, in L/kg.

COc1ccc(C#CC(C)(C)N)cc1C(=O)c1ccc(Nc2ccc(F)cc2F)cc1 = 9

Switching to the query record.
Reported Vd for COc1cc2[nH]c(C)nc2cc1C(=O)c1ccc(Nc2ccc(F)cc2F)nc1 was 1.1

----------
Assayed target: UniProt:P00533
Sequence (P00533 whole entry): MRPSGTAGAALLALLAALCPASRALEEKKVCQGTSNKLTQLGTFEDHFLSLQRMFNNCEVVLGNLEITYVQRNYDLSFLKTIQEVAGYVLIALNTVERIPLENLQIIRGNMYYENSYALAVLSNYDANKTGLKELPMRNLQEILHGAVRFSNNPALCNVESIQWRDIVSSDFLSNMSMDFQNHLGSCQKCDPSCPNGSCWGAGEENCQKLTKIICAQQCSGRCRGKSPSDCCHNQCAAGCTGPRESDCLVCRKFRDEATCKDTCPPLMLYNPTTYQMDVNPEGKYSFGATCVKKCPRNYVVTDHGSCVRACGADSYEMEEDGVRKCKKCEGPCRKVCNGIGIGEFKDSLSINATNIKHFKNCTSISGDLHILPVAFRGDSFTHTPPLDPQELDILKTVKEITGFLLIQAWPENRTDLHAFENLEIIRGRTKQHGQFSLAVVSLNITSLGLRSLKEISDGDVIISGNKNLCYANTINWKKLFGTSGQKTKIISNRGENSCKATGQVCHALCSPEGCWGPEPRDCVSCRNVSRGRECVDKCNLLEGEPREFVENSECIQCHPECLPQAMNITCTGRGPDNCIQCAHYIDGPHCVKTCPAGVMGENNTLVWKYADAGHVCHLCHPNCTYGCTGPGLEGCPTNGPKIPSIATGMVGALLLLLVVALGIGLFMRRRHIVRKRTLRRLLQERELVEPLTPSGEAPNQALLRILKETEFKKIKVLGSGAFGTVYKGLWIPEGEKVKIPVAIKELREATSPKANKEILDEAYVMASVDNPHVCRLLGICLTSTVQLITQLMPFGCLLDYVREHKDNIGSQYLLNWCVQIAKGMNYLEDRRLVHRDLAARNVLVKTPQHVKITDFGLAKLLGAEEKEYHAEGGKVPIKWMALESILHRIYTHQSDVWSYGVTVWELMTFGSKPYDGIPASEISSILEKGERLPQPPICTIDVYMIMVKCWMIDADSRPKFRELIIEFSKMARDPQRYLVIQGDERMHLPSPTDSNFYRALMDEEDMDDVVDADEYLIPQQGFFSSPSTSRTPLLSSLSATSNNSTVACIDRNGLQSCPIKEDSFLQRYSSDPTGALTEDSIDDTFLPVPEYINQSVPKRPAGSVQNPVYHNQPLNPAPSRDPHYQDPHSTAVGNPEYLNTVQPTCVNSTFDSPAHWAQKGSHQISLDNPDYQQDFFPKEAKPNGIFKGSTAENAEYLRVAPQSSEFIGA
Assay overview: Inhibition of human Epidermal growth factor receptor
Metric: IC50 (µM)
Answers are plain numbers, in µM.

Reported IC50 for COc1ccc(C#CC(C)(C)N)cc1C(=O)c1ccc(Nc2ccc(F)cc2F)cc1 was 8.8

----------
Assayed target: Mitogen-activated protein kinase 9 (Homo sapiens)
Sequence (P45984 whole entry): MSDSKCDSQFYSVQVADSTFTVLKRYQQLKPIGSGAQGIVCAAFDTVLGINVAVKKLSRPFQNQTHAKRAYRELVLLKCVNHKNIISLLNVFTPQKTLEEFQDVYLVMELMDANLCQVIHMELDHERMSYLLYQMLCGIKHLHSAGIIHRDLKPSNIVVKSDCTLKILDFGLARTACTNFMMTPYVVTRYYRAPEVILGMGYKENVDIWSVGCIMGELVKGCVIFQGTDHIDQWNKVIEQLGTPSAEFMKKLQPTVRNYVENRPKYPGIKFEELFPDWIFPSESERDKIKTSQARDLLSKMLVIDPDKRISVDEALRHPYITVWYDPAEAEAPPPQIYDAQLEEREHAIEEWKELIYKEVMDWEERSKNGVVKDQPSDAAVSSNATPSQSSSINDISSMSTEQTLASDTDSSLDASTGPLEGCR
Assay overview: Inhibit of human c-Jun N-terminal kinase 2
pIC50: −log10 of the molar value.
Metric: pIC50

COc1cc2nc(C)[nH]c2cc1C(=O)c1ccc(Nc2ccc(F)cc2F)cc1 = < 5.00

Hey, Mitogen-activated protein kinase 9 (Homo sapiens) data for COc1ccc(C#CC(C)(C)N)cc1C(=O)c1ccc(Nc2ccc(F)cc2F)cc1 : pIC50 came out at < 5.00

----------
Assayed target: Mitogen-activated protein kinase 14 (Mus musculus)
Assay overview: Inhibition of murine His-Mitogen-activated protein kinase p38 alpha phosphorylation.
Metric: pIC50
Answers are plain numbers, as −log10 of the molar value.

// known answers, use as guide
O=C(c1ccc(Nc2ccc(F)cc2F)nc1)c1cc(Br)ccc1Cl = 3.52
O=C(c1ccc(Nc2ccc(F)cc2F)cc1)c1ccccc1Cl = 4.96

Hey, Mitogen-activated protein kinase 14 (Mus musculus) data for COc1cc2nc(C)[nH]c2cc1C(=O)c1ccc(Nc2ccc(F)cc2F)cc1 : pIC50 came out at 5.30
